# system_under_test: rat brain bradykinin receptors
# procedure_summary: Radioligand competition binding against [3H]DALKD in rat brain membranes
# condition_set: Table 3; [3H]DALKD, rat brain bradykinin receptors, pH 7.4; read-out: IC50 (nM) at pH 7.4, N > 2
Square brackets hold non-standard residues; d marks the D form. Ends that are not written are not given here.
Hi there, I'd appreciate the recorded log10 IC50 for every entry that follows.
Values are log10 of IC50 in nM.

Item Ac-Phe-Leu-Arg-Ile-Arg-Pro-DLys (Ac-FLRIRP[dK]) [AP111] : provide log10 IC50
2.74

Answer with the recorded log10 IC50 for the substance listed here: FLRRIRPK [LYS1026, Phe-Leu-Arg-Arg-Ile-Arg-Pro-Lys]
2.15

Identify measured log10 IC50 corresponding to RIRPKL [RK108, Arg-Ile-Arg-Pro-Lys-Leu-NH2]
3.80

State, in one line, measured log10 IC50 of FLRRIRPK [Analogs S1F, Phe-Leu-Arg-Arg-Ile-Arg-Pro-Lys-NH2]
3.83

Determine from records and report log10 IC50 for IRPKL [RK107, Ile-Arg-Pro-Lys-Leu-NH2]
3.94

Hello, please tell me recorded log10 IC50 for this one: LRRIRPKL [LYS1022, Leu-Arg-Arg-Ile-Arg-Pro-Lys-Leu]
3.85

Identify log10 IC50 associated with the substance GFLR [LYS1035, Gly-Phe-Leu-Arg]
2.98

Identify measured log10 IC50 associated with FLRIRPK [AP107-1, Ac-Phe-Leu-Arg-Ile-Arg-Pro-Lys]
2.08
